assay: chemical genetic growth profiling, strain panel (AID 1159580);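 further: tested at 20 µM; growth read once vehicle control cultures reached saturation at 30 °C; 1 = growth at the plate median or of vehicle wells; lower values mean less growth of the strain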; conditions: S. cerevisiae deletion strains, growth OD, locus YKR026C, strain gcn3, active compounds read low
Screen size: about 5,500 compounds; about 2,000 (36%) were called active. Another 18% or so got no clear call; they are omitted. The list shows a part of the results.
assay readout: normalized growth
Output spec: single numeric token, no unit.

Check out these entries, answers already filled in.
molecule: C[C@]12CCC3c4ccc(O)cc4CCC3C1C[C@@H](O)[C@@H]2O (some centres not stated)
assay readout: normalized growth
measured result: 1.02
--
molecule: CC(=O)[C@@]1(O)CCC2C3C[C@H](C)C4=CC(=O)C=CC4(C)[C@@]3(F)[C@@H](O)C[C@@]21C (some centres not stated)
assay readout: normalized growth
measured result: 0.982
--
molecule: N#Cc1nn(-c2c(Cl)cc(C(F)(F)F)cc2Cl)c(N)c1S(=O)C(F)(F)F (configuration not stated)
assay readout: normalized growth
measured result: 0.98
--
molecule: CC[n+]1c(-c2ccccc2)c2cc(N)ccc2c2ccc(N)cc21
assay readout: normalized growth
measured result: 0.955
--
molecule: CN[C@@H]1C(O)[C@@H](O[C@@H]2[C@@H](O)[C@H](O[C@H]3OC(CN)=CC[C@H]3N)[C@@H](N)C[C@H]2N)OC[C@]1(C)O (some centres not stated)
assay readout: normalized growth
measured result: 1

Cc1cc(C2CCCCC2)n(O)c(=O)c1 has a reported normalized growth of 0.0732

OC1CC2CCCC(C1)N2Cc1ccccc1 (configuration not stated) has a reported normalized growth of 1

NC(=O)CN1CCCC1=O has a reported normalized growth of 0.992

C[C@]12CCC3c4ccc(O)cc4CCC3C1CC[C@@H]2O (some centres not stated) has a reported normalized growth of 1.03

---

The entries below come with measured normalized growth values attached.
assay: chemical genetic growth profiling, strain panel (AID 1159580); conditions: S. cerevisiae deletion strains, growth OD, locus YBR021W, strain FUR4, active compounds read low
Hit rate of the full screen: of about 5,500 compounds, about 2,000 (36%) were called active. Not shown: some 18% with an inconclusive outcome. Some of the results follow.
Output spec: single numeric token, no unit.

CC1CC[C@@]2(OC1)O[C@H]1CC3C4CC[C@@H]5C[C@@H](O)CC[C@]5(C)C4CC[C@]3(C)[C@H]1[C@@H]2C (stereo partly specified) has a reported normalized growth of 1.02

CC(C)[N+](C)(CCC(C(N)=O)(c1ccccc1)c1ccccc1)C(C)C has a reported normalized growth of 1

CC1CC[C@]2(NC1)O[C@H]1CC3C4CC[C@H]5C[C@@H](O)CC[C@]5(C)C4CC[C@]3(C)[C@H]1[C@@H]2C (stereo partly specified) has a reported normalized growth of 0.272

---

test: chemical genetic growth profiling, strain panel (AID 1159580); conditions: S. cerevisiae deletion strains, growth OD, locus YDR502C, strain sam2
Among all 5,500 compounds or so, about 2,000 (36%) were called active. Roughly 18% stayed inconclusive and do not appear here. No stated cut-off is given here; in the data, active means normalized growth mostly below about 0.91 (no sharp cut-off); inconclusive means no clear call, values can overlap the other calls; inactive means mostly above about 0.92. Some of the results follow.
Please state which outcome applies, choosing from TRUE (active), FALSE (inactive)

Please review the following examples before continuing.
compound: CC(=O)[C@@]1(O)CCC2C3C[C@H](C)C4=CC(=O)C=CC4(C)[C@@]3(F)[C@@H](O)C[C@@]21C (stereo not given in full)
assigned class: FALSE
--
compound: O=C(OC1Cc2c(O)cc(O)cc2OC1c1cc(=O)c(O)c2c(O)c(O)cc(C3Oc4cc(O)cc(O)c4CC3O)c2c1)c1cc(O)c(O)c(O)c1 (stereo not given)
assigned class: TRUE
--
compound: Oc1cc2c(cc1O)C1c3ccc(O)c(O)c3OCC1(O)C2 (stereo not given)
assigned class: FALSE
--
compound: NC(CSCSCC(N)C(=O)O)C(=O)O (stereo not given)
assigned class: FALSE

What is the recorded call for this compound in the test? Cc1ccccc1OCC(O)CO (stereo not given)
FALSE

---

test: chemical genetic growth profiling, strain panel (AID 1159580); details: S. cerevisiae deletion strains, growth OD, locus YPL256C, strain CLN2, active compounds read low
The whole screen tested about 5,500 compounds, of which about 2,000 (36%) were called active. About 18% were inconclusive and are not listed. The list shows a part of the results.
The entries below come with measured normalized growth values attached.

Check out these entries, answers already filled in.
compound: COc1ccc(-c2cc(=O)c3c(O)cc(O[C@@H]4O[C@H](CO[C@H]5O[C@H](C)[C@@H](O)[C@H](O)[C@@H]5O)[C@@H](O)[C@H](O)[C@H]4O)cc3o2)cc1O
measured result: 0.987 (inactive)
//
compound: O=c1c(O)c(-c2ccc(O)cc2O)oc2cc(O)cc(O)c12
measured result: 0.974 (inactive)

// switching to the query compound
C[C@@H]1O[C@@H](OC[C@H]2OC(Oc3c(-c4ccc(O)c(O)c4)oc4cc(O)cc(O)c4c3=O)[C@H](O)[C@@H](O)[C@@H]2O)[C@H](O)[C@H](O)[C@H]1O (stereo partly drawn) has a reported normalized growth of 1.09 (inactive)

---

The entries below come with measured normalized growth values attached.
experiment: chemical genetic growth profiling, strain panel (AID 1159580);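 further: tested at 20 µM; growth read once vehicle control cultures reached saturation at 30 °C; 1 = growth at the plate median or of vehicle wells; lower values mean less growth of the strain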; conditions: S. cerevisiae deletion strains, growth OD, locus YGR252W, strain gcn5, active compounds read low
The whole screen tested about 5,500 compounds, of which about 2,000 (36%) were called active. Roughly 18% stayed inconclusive and do not appear here. This is one part of the list.
Output spec: single numeric token, no unit.

compound: COc1cccc2c(C)cc(=O)[nH]c12
normalized growth: 0.874
//
compound: COc1ccc(-c2oc3c(CC=C(C)C)c(O[C@@H]4O[C@H](CO)[C@@H](O)[C@H](O)[C@H]4O)cc(O)c3c(=O)c2O[C@@H]2O[C@@H](C)[C@H](O)[C@@H](O)[C@H]2O)cc1
normalized growth: 1.06
//
compound: CC(=O)[C@@]1(O)CCC2C3C[C@H](C)C4=CC(=O)C=CC4(C)[C@@]3(F)[C@@H](O)C[C@@]21C (stereo not given in full)
normalized growth: 1.08
//
compound: CC(C)C1COc2cc3oc(=O)ccc3cc2O1 (stereo not given)
normalized growth: 0.209
//
compound: Cc1[nH]ccc2c1[nH]c1cc(=O)ccc12
normalized growth: 1.01

CC12CCC3c4ccc(OCc5ccccc5)cc4CCC3C1C[C@@H](O)[C@@H]2O (stereo not given in full) has a reported normalized growth of 0.133

COc1ccc2c(c1)CCC1C2CCC2(C)C1C[C@@H](O)C2O (stereo not given in full) has a reported normalized growth of 0.774

C=C(C)[C@H]1COc2cc3oc(=O)ccc3cc2O1 has a reported normalized growth of 0.28

COc1ccccc1/C=C\C(=O)O has a reported normalized growth of 1.15

CC(C)(O)[C@@H]1Cc2cc3ccc(=O)oc3cc2O1 has a reported normalized growth of 0.991

---

assay: chemical genetic growth profiling, strain panel (AID 1159580);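 further: tested at 20 µM; growth read once vehicle control cultures reached saturation at 30 °C; 1 = growth at the plate median or of vehicle wells; lower values mean less growth of the strain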; conditions: S. cerevisiae deletion strains, growth OD, locus YPR119W, strain clb2, active compounds read low
About 2,000 (36%) of roughly 5,500 compounds were called active. About 18% were inconclusive and are not listed. Some of the results follow.
assay readout: normalized growth
Output spec: single numeric token, no unit.

compound: COC(=O)[C@]1(C)CCC[C@]2(C)c3ccc(C(C)C)cc3C(=O)CC12 (some centres not stated)
normalized growth: 0.993

compound: CC(=O)O[C@@H]1CC(=O)[C@@]2(C)C(CC(=O)[C@]3(C)C2CC[C@@]2(C)[C@H](c4ccoc4)OC(=O)C4OC423)C1(C)C (some centres not stated)
normalized growth: 1.02

compound: CC1(C)O[C@H]2CC(=O)OC[C@]23[C@H]2CC[C@@]4(C)[C@H](c5ccoc5)OC(=O)[C@H]5O[C@]54[C@]2(C)C(=O)C[C@@H]13
normalized growth: 0.994

compound: CC1(C)C2CC(=O)[C@]3(C)C(CC[C@@]4(C)[C@H](c5ccoc5)OC(=O)C5OC543)[C@@]2(C)[C@@H](O)C[C@H]1O (some centres not stated)
normalized growth: 0.978

compound: CC(=O)Oc1ccc2c(c1C(C)C)CCC1C(C)(C)CCC[C@]21C (some centres not stated)
normalized growth: 0.992

compound: CC1(C)C(=O)C=C[C@@]2(C)C1C=C[C@]1(C)C2CC[C@@]2(C)[C@H](c3ccoc3)OC(=O)C3OC321 (some centres not stated)
normalized growth: 0.979

CC1(C)C(=O)C=C[C@@]2(C)C1CC(=O)[C@]1(C)C2CC[C@@]2(C)[C@H](c3ccoc3)OC(=O)[C@H]3O[C@]321 (some centres not stated) has a reported normalized growth of 1.01

---

The entries below come with measured normalized growth values attached.
experiment: chemical genetic growth profiling, strain panel (AID 1159580);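 further: tested at 20 µM; growth read once vehicle control cultures reached saturation at 30 °C; 1 = growth at the plate median or of vehicle wells; lower values mean less growth of the strain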; settings: S. cerevisiae deletion strains, growth OD, locus YPR025C, strain CCL1, active compounds read low
The campaign covered roughly 5,500 compounds. About 2,000 (36%) were called active. Roughly 18% stayed inconclusive and do not appear here. The list shows a part of the results.
Output spec: single numeric token, no unit.

smiles representation: Oc1c(Cl)cc(Cl)cc1C=Nc1ccc(Sc2ccccc2)nc1Sc1ccccc1
assay readout: normalized growth
measured result: 0.95
--
smiles representation: COCCCNC(=S)N/N=C\c1cc(Cl)cc(Cl)c1O
assay readout: normalized growth
measured result: 0.961

// switching to the query molecule
COCCCNC(=S)N/N=C\c1cc(Br)ccc1O has a reported normalized growth of 0.962
